Assay: Plasma pharmacokinetics in rats after i.v. and i.g. dosing (UPLC-FLR)
Format: in vivo, Sprague Dawley rats
Settings: both sexes, Sprague Dawley, plasma, iv; rat, 8 mg/kg i.v., mean ± SD, n = 6
Measured endpoint: AUC(0-t) (ng·h/mL)
Use ng·h/mL as the unit, but write only the number.

The compound listed as CC[C@@]12CC(C(=O)OC)=C3Nc4cc5c(cc4[C@@]34CCN(C[C@H]3O[C@H]31)[C@@H]24)[C@@H]1C(O5)[C@@H](O)[C@@]2(CC)CC(C(=O)OC)=C3Nc4cc(OC)ccc4[C@@]34CCN1[C@@H]24 (stereo partly shown) [10-dehydroxyl-12-demethoxy-conophylline, 10-Dehydroxyl-12-demethoxy-conophylline] has a reported AUC(0-t) of 2150

* * *

Assay: Plasma pharmacokinetics in rats after i.v. and i.g. dosing (UPLC-FLR)
Format: in vivo, Sprague Dawley rats
Details: both sexes, Sprague Dawley, rat, plasma, iv, 8 mg/kg, 8 mg/kg i.v., mean ± SD, n = 6
Measured endpoint: Tmax (min)
Use min as the unit, but write only the number.

The compound listed as CC[C@@]12CC(C(=O)OC)=C3Nc4cc5c(cc4[C@@]34CCN(C[C@H]3O[C@H]31)[C@@H]24)[C@@H]1C(O5)[C@@H](O)[C@@]2(CC)CC(C(=O)OC)=C3Nc4cc(OC)ccc4[C@@]34CCN1[C@@H]24 (stereo partly shown) [10-dehydroxyl-12-demethoxy-conophylline, 10-Dehydroxyl-12-demethoxy-conophylline] has a reported Tmax of 2

* * *

Assay: Plasma pharmacokinetics in rats after i.v. and i.g. dosing (UPLC-FLR)
Format: in vivo, Sprague Dawley rats
Settings: both sexes, Sprague-Dawley, plasma, iv; rat, 12 mg/kg i.v., mean ± SD, n = 6
Measured endpoint: MRT

The molecule listed as CC[C@@]12CC(C(=O)OC)=C3Nc4cc5c(cc4[C@@]34CCN(C[C@H]3O[C@H]31)[C@@H]24)[C@@H]1C(O5)[C@@H](O)[C@@]2(CC)CC(C(=O)OC)=C3Nc4cc(OC)ccc4[C@@]34CCN1[C@@H]24 (stereo partly shown) [10-dehydroxyl-12-demethoxy-conophylline, 10-Dehydroxyl-12-demethoxy-conophylline] has a reported MRT of 1.36 h

* * *

Experiment: Plasma pharmacokinetics in rats after i.v. and i.g. dosing (UPLC-FLR)
Type: in vivo, Sprague Dawley rats
Settings: both sexes, Sprague Dawley, plasma, iv; rat, 8 mg/kg i.v., mean ± SD, n = 6
Measured endpoint: AUC(0-inf) (ng·h/mL)
Use ng·h/mL as the unit, but write only the number.

The compound listed as CC[C@@]12CC(C(=O)OC)=C3Nc4cc5c(cc4[C@@]34CCN(C[C@H]3O[C@H]31)[C@@H]24)[C@@H]1C(O5)[C@@H](O)[C@@]2(CC)CC(C(=O)OC)=C3Nc4cc(OC)ccc4[C@@]34CCN1[C@@H]24 (stereo partly shown) [10-dehydroxyl-12-demethoxy-conophylline, 10-Dehydroxyl-12-demethoxy-conophylline] has a reported AUC(0-inf) of 2190
